Provenance of the data: patent US20250361297A1

experimental.target: T1, recombinant human Siglec-15 protein (Homo sapiens, UniProt Q6ZMC9)
T1 construct: purchased Bonopusbio CW70-50 ug
T1 sequence (Q6ZMC9 20-263 limits assumed): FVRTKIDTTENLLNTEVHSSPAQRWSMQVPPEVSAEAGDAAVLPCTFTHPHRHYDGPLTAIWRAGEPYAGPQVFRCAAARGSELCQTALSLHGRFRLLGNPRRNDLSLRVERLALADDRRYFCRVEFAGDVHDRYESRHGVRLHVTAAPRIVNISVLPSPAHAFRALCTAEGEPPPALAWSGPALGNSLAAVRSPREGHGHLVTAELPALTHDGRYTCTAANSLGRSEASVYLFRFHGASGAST
experiment: BIACORE surface plasmon resonance binding affinity
test.parameters: SPR; antibody as ligand, human Siglec-15 as analyte; 1:1 Langmuir model

| molecule | ka |
| --- | --- |
| S15B1-VH3 + VL2: humanized S15B1 antibody, humanized VH3 with humanized VL2 (antibody, V domains shown) VH: QVQLVQSGAEVKKPGASVKVSCKASGYAFSSSWMNWVKQAPGQGLEWIGRIYPGHGETNYNGKFKDRATMTADTSTSTVYMELSSLRSEDTAVYFCARVDNSDPYYFDYWGQGTTVTVSS VL: DIVLTQSPASLAVSPGQRATITCRASKSVSTSGYSYMHWYQQKPGQPPKLLIYLASNLESGVPARFSGSGSGTDFTLTINPVEAEDTATYYCQHGRELPFTFGGGTKLEIK | 4.49e+06 M⁻¹ s⁻¹ |
